B1: Ribonuclease, P00648 (parent)
chain: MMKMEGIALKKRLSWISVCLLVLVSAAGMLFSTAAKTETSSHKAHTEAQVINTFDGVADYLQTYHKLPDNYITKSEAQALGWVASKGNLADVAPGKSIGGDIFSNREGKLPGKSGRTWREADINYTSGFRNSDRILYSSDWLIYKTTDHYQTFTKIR

- Variants of: B1
- Stated Conditions: Bacillus amyloliquefaciens; pH 6.3; 25 °C; Urea; Fluorescence; MES 50 mM; reversible: yes; structure 1BNI; whole UniProt chain shown
Kindly supply the reported denaturant midpoint (higher = more stable) values for the records listed here.
Numbers only, in M.

Batch of 4 variants: report denaturant midpoint (higher = more stable) for each.
1. D59A
2. R157A
3. D55A
4. D55A D59A R157A

1. 4.42
2. 4.37
3. 4.12
4. 4.63

Batch of 2 variants: report denaturant midpoint (higher = more stable) for each.
1. D55A R157A
2. D55A D59A

1: 4.36; 2: 4.16

Recorded values, source FireProtDB (doi:10.1016/s0022-2836(99)80018-7).
